Reported Mean relative activity values are given for each entry in this list.
Test system: K562 CRISPRi cells
protocol: Constant region variant library pooled growth screen, K562
Assay type: cell-based, human
measurement-setup: sgRNA constant region variants; activity relative to the unmodified constant region cr995
readout-type: Mean relative activity

1. cr965 (nucleic acid, listed as DNA, chemistry not fully specified) guide: GTTTAAGAGCTAAGCTGGAAACAGCATAGCAAGTTTAAATAAGGGTACTCCGTTATCAACTTGAAAAAGTGGCCTCGAGTCGAGGCT :: 0.2572
2. cr373 (nucleic acid, listed as DNA, chemistry not fully specified) guide: GTTTAAGAGCTAAGCTGGAAACAGCATAGCAAGCTTAAATAAGGCTAGTCCGTTATCAACTTGAAAAAGTGGCAGCGAGTCGCTGCT :: 0.1993
3. cr872 (nucleic acid, listed as DNA, chemistry not fully specified) guide: GTTTAAGAGCTAAGCTGGAAACAGCATAGCAAGTTTAAATAAGGCTATTCCGTTATCAACTTGAAAAAGTGGCACCGAGTCGGTGCT :: 0.1317
4. cr560 (nucleic acid, listed as DNA, chemistry not fully specified) guide: GTTTAAGAGCTAAGCTGGAAACAGCATAGCAAGCTTAAATAAGGCTAGTCCGTTATCAACTTGAAAAAGTGGCACTGAGTCAGTGCT :: 0.1347
5. cr761 (nucleic acid, listed as DNA, chemistry not fully specified) guide: GTTTAAGAGCTAAGCTGGAAACAGCATAGCTAGTTTAAATAAGGCTAGTCCGTTGTCTACTTGAAAAAGTGGCACCGAGTCGGTGCT :: 0.1369
6. cr732 (nucleic acid, listed as DNA, chemistry not fully specified) guide: GTTTAAGAGCTAAGCTGGAAACAGCATAGCAAGTTTAAATAGGGCTAGTCCGGTATCAACTTGAAAAAGTCGCACCGAGTCGGTGCT :: 0.1926
7. cr027 (nucleic acid, listed as DNA, chemistry not fully specified) guide: GTCTAAAAGCTAAGCTGGAAACAGCATAGCAAGTTTAAATAAGGCTAGTCCGTTATCAACTTGAAAAAGTGGCACCGAGTCGGTGCT :: 0.2878
